Experiment: Stability in human blood serum (radio-HPLC)
Assay type: in vitro ADME
Conditions: 37 °C, 60 min, n=2, read-out: Serum stability (% of intact ligand)
MEASURED_PARAMETER: remaining at 1 h (%)

1) NC(=O)CNC(=O)CNC(=O)[C@H](CCCCNC(=O)CCCCc1cn(C2O[C@H](CO)[C@H](O)[C@H](O)[C@H]2O)nn1)NC(=O)CNC(=O)CNC(=O)[C@H](CCCCNC(=O)CCCCc1cn(C2O[C@H](CO)[C@H](O)[C@H](O)[C@H]2O)nn1)NC(=O)CNC(=O)CNC(=O)[C@H](CCCCNC(=O)CCCCc1cn(C2O[C@H](CO)[C@H](O)[C@H](O)[C@H]2O)nn1)NC(=O)CCCNC(=O)CC[C@H](C(=O)O)N1CCN(CC(=O)O)CCN(CC(=O)O)CC1 (stereo partly shown) [[68Ga]Ga-TriLysan, metal not drawn] : 99.9

* * *

Assay: Biodistribution studies in BALB/c mice
Format: in vivo
Details: female, mouse, iv, total radioactivity; Blood, 10 min p.i., healthy BALB/c mice, 0.1 nmol i.v.; read-out: Biodistribution data, Blood
MEASURED_PARAMETER: tissue uptake at 10 min

1. NC(=O)CNC(=O)CNC(=O)[C@H](CCCCNC(=O)CCCCc1cn(C2O[C@H](CO)[C@H](O)[C@H](O)[C@H]2O)nn1)NC(=O)CNC(=O)CNC(=O)[C@H](CCCCNC(=O)CCCCc1cn(C2O[C@H](CO)[C@H](O)[C@H](O)[C@H]2O)nn1)NC(=O)CNC(=O)CNC(=O)[C@H](CCCCNC(=O)CCCCc1cn(C2O[C@H](CO)[C@H](O)[C@H](O)[C@H]2O)nn1)NC(=O)CCCNC(=O)CC[C@H](C(=O)O)N1CCN(CC(=O)O)CCN(CC(=O)O)CC1 (stereo partly shown) [[68Ga]Ga-TriLysan, metal not drawn] : 3.64 %ID/g

* * *

Test: Biodistribution studies in BALB/c mice
Type: in vivo
Conditions: female, mouse, iv, total radioactivity; Kidneys, 30 min p.i., healthy BALB/c mice, 0.1 nmol i.v.; read-out: Biodistribution data, Kidneys
MEASURED_PARAMETER: tissue uptake at 0.5 h (%ID/g)

1. NC(=O)CNC(=O)CNC(=O)[C@H](CCCCNC(=O)CCCCc1cn(C2O[C@H](CO)[C@H](O)[C@H](O)[C@H]2O)nn1)NC(=O)CNC(=O)CNC(=O)[C@H](CCCCNC(=O)CCCCc1cn(C2O[C@H](CO)[C@H](O)[C@H](O)[C@H]2O)nn1)NC(=O)CNC(=O)CNC(=O)[C@H](CCCCNC(=O)CCCCc1cn(C2O[C@H](CO)[C@H](O)[C@H](O)[C@H]2O)nn1)NC(=O)CCCNC(=O)CC[C@H](C(=O)O)N1CCN(CC(=O)O)CCN(CC(=O)O)CC1 (stereo partly shown) [[68Ga]Ga-TriLysan, metal not drawn] : 4.99

* * *

Experiment: Biodistribution studies in BALB/c mice
Assay type: in vivo
Details: female, mouse, iv, total radioactivity; Pancreas, 10 min p.i., healthy BALB/c mice, 0.1 nmol i.v.; read-out: Biodistribution data, Pancreas
MEASURED_PARAMETER: tissue uptake at 10 min (%ID/g)

1) NC(=O)CNC(=O)CNC(=O)[C@H](CCCCNC(=O)CCCCc1cn(C2O[C@H](CO)[C@H](O)[C@H](O)[C@H]2O)nn1)NC(=O)CNC(=O)CNC(=O)[C@H](CCCCNC(=O)CCCCc1cn(C2O[C@H](CO)[C@H](O)[C@H](O)[C@H]2O)nn1)NC(=O)CNC(=O)CNC(=O)[C@H](CCCCNC(=O)CCCCc1cn(C2O[C@H](CO)[C@H](O)[C@H](O)[C@H]2O)nn1)NC(=O)CCCNC(=O)CC[C@H](C(=O)O)N1CCN(CC(=O)O)CCN(CC(=O)O)CC1 (stereo partly shown) [[68Ga]Ga-TriLysan, metal not drawn] : 0.97

* * *

Test: Biodistribution studies in BALB/c mice
Format: in vivo
Details: female, mouse, iv, total radioactivity; Femur, 10 min p.i., healthy BALB/c mice, 0.1 nmol i.v.; read-out: Biodistribution data, Femur
MEASURED_PARAMETER: tissue uptake at 10 min (%ID/g)

1) NC(=O)CNC(=O)CNC(=O)[C@H](CCCCNC(=O)CCCCc1cn(C2O[C@H](CO)[C@H](O)[C@H](O)[C@H]2O)nn1)NC(=O)CNC(=O)CNC(=O)[C@H](CCCCNC(=O)CCCCc1cn(C2O[C@H](CO)[C@H](O)[C@H](O)[C@H]2O)nn1)NC(=O)CNC(=O)CNC(=O)[C@H](CCCCNC(=O)CCCCc1cn(C2O[C@H](CO)[C@H](O)[C@H](O)[C@H]2O)nn1)NC(=O)CCCNC(=O)CC[C@H](C(=O)O)N1CCN(CC(=O)O)CCN(CC(=O)O)CC1 (stereo partly shown) [[68Ga]Ga-TriLysan, metal not drawn] : 0.89

* * *

Assay: Biodistribution studies in BALB/c mice
Format: in vivo
Settings: female, mouse, iv, total radioactivity; Femur, 30 min p.i., healthy BALB/c mice, 0.1 nmol i.v.; read-out: Biodistribution data, Femur
Method: For biodistribution studies 6-week-old female BALB/c mice (n=3) were injected with 0.1 nmol (100 µL, approx. 1 MBq) of labelled compound via the lateral tail vein and sacrificed after 10, 30, or 60 min by cervical dislocation. The mice were dissected, blood and organs (spleen, pancreas, stomach, intestine, liver, kidney, heart, lung, muscle and bone) were weighed and their activity measured in a γ-counter. For blocking experiments, mice were co-injected with 27.7 µmοl N-acetylgalactose.
MEASURED_PARAMETER: tissue uptake at 0.5 h

1) NC(=O)CNC(=O)CNC(=O)[C@H](CCCCNC(=O)CCCCc1cn(C2O[C@H](CO)[C@H](O)[C@H](O)[C@H]2O)nn1)NC(=O)CNC(=O)CNC(=O)[C@H](CCCCNC(=O)CCCCc1cn(C2O[C@H](CO)[C@H](O)[C@H](O)[C@H]2O)nn1)NC(=O)CNC(=O)CNC(=O)[C@H](CCCCNC(=O)CCCCc1cn(C2O[C@H](CO)[C@H](O)[C@H](O)[C@H]2O)nn1)NC(=O)CCCNC(=O)CC[C@H](C(=O)O)N1CCN(CC(=O)O)CCN(CC(=O)O)CC1 (stereo partly shown) [[68Ga]Ga-TriLysan, metal not drawn] : 0.39 %ID/g

* * *

Assay: Biodistribution studies in BALB/c mice
Type: in vivo
Details: female, mouse, iv, total radioactivity; Stomach, 10 min p.i., healthy BALB/c mice, 0.1 nmol i.v.; read-out: Biodistribution data, Stomach
MEASURED_PARAMETER: tissue uptake at 10 min (%ID/g)

1) NC(=O)CNC(=O)CNC(=O)[C@H](CCCCNC(=O)CCCCc1cn(C2O[C@H](CO)[C@H](O)[C@H](O)[C@H]2O)nn1)NC(=O)CNC(=O)CNC(=O)[C@H](CCCCNC(=O)CCCCc1cn(C2O[C@H](CO)[C@H](O)[C@H](O)[C@H]2O)nn1)NC(=O)CNC(=O)CNC(=O)[C@H](CCCCNC(=O)CCCCc1cn(C2O[C@H](CO)[C@H](O)[C@H](O)[C@H]2O)nn1)NC(=O)CCCNC(=O)CC[C@H](C(=O)O)N1CCN(CC(=O)O)CCN(CC(=O)O)CC1 (stereo partly shown) [[68Ga]Ga-TriLysan, metal not drawn] : 1.55

* * *

Test: Biodistribution studies in BALB/c mice
Assay type: in vivo
Settings: female, mouse, iv, total radioactivity; Heart, 10 min p.i., healthy BALB/c mice, 0.1 nmol i.v.; read-out: Biodistribution data, Heart
Protocol: For biodistribution studies 6-week-old female BALB/c mice (n=3) were injected with 0.1 nmol (100 µL, approx. 1 MBq) of labelled compound via the lateral tail vein and sacrificed after 10, 30, or 60 min by cervical dislocation. The mice were dissected, blood and organs (spleen, pancreas, stomach, intestine, liver, kidney, heart, lung, muscle and bone) were weighed and their activity measured in a γ-counter. For blocking experiments, mice were co-injected with 27.7 µmοl N-acetylgalactose.
MEASURED_PARAMETER: tissue uptake at 10 min

1. NC(=O)CNC(=O)CNC(=O)[C@H](CCCCNC(=O)CCCCc1cn(C2O[C@H](CO)[C@H](O)[C@H](O)[C@H]2O)nn1)NC(=O)CNC(=O)CNC(=O)[C@H](CCCCNC(=O)CCCCc1cn(C2O[C@H](CO)[C@H](O)[C@H](O)[C@H]2O)nn1)NC(=O)CNC(=O)CNC(=O)[C@H](CCCCNC(=O)CCCCc1cn(C2O[C@H](CO)[C@H](O)[C@H](O)[C@H]2O)nn1)NC(=O)CCCNC(=O)CC[C@H](C(=O)O)N1CCN(CC(=O)O)CCN(CC(=O)O)CC1 (stereo partly shown) [[68Ga]Ga-TriLysan, metal not drawn] : 1.41 %ID/g
